# test_target: Hsp90 such as brain Hsp90
# protocol_notes: EC50 for binding to Hsp90 such as brain Hsp90
# measurement_conditions: concentration yielding half-maximal binding to Hsp90 such as brain Hsp90, or halving binding in a competition assay
test_readout: EC50 (nM)
Numeric answer only, unit nM assumed.

So what does the record say about EC50 for CC(C)(C)CNCCn1c(Sc2cc3c(cc2I)OCO3)nc2c(N)ncnc21 [Compound 1] ? 6.9

Values from patent US20210161902A1
